Data provenance is the supplement of paper PMC8728848.

molecular target: Neu5Ac(a2-6)Gal(b1-3)GlcNAc(b1-3)[Gal(b1-4)GlcNAc(b1-6)]Gal(b1-4)Glc; assay: glycan array binding signal (z-score within array); higher = stronger binding; details: glycan notation: IUPAC condensed, linker removed
Many of the other results were omitted from the sample, so the strongest signals are more common in it than they were.
Readout: glycan array binding signal (z-score)

Sp8391B-bot-388-20-388 (Bacteroides ovatus) (protein) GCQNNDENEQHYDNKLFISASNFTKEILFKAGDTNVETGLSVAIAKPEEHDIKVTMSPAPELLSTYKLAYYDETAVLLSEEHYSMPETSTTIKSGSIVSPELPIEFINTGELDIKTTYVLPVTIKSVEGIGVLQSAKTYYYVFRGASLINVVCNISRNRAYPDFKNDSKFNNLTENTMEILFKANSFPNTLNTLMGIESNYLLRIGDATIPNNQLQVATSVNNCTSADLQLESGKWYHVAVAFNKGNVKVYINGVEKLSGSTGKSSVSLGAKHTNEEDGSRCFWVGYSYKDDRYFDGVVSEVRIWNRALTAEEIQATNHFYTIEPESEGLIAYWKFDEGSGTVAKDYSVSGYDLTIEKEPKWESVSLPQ: 6.14
